# assay.name: IG (lipid-mRNA adduct impurity) in binary mixtures of RNA and Compound III, ion pair reversed phase HPLC
# Format: physicochemical
# condition.info: 1 mM agent, 25 C, after 18 hours
measured.endpoint: level of IG compared to control binary mixtures

* O[C@H](CS)[C@H](O)CS | reduced levels of IG
* N[C@@H](CCC(=O)N[C@@H](CS)C(=O)NCC(=O)O)C(=O)O | reduced levels of IG
* O=C(O)CCP(CCC(=O)O)CCC(=O)O | reduced levels of IG
